# Type: physicochemical
# assay-setup: SGF with pepsin, pH 1.5, 37° C., 0.5 mM; time 1 h
Overview of recorded Condition 1 Conversion (%) for various compounds
metric: Condition 1 Conversion (%)

compound: COc1ccc(C23CCC(=NNC(=O)Nc4ccccc4)C[C@@H]2N(C)CC3)cc1OC (stereo in doubt) [Compound 198]
test-value: 1
--
compound: COc1ccc([C@@]23CC/C(=N\NC(=O)c4ccccc4C(=O)O)C[C@@H]2N(C)CC3)cc1OC [Compound 244]
test-value: 100
--
compound: COc1ccc([C@@]23CCC(=NNc4ccc5ccccc5n4)C[C@@H]2N(C)CC3)cc1OC [Compound 366]
test-value: 77.4
--
compound: COc1ccc([C@@]23CCC(=NOCCC45CC6CC(CC(C6)C4)C5)C[C@@H]2N(C)CC3)cc1OC [Compound 276]
test-value: 2.77

###

Overview of recorded Condition 1 Conversion (%), second value of pair x/y for various molecules
# Format: physicochemical
# assay-setup: SGF with pepsin, pH 1.5, 37° C.; time 24 h; second of two values
metric: Condition 1 Conversion (%), second value of pair x/y

molecule: COc1ccc([C@@]23CC/C(=N/OC(C)(C)OC)C[C@@H]2N(C)CC3)cc1OC
test-value: 100
//
molecule: COc1ccc([C@@]23CC/C(=N\OC(C)(C)OC)C[C@@H]2N(C)CC3)cc1OC
test-value: 100
//
molecule: COc1ccc([C@@]23CCC(=NOC4CCCCO4)C[C@@H]2N(C)CC3)cc1OC (stereo partly shown)
test-value: 100
//
molecule: COc1ccc([C@@]23CCC(=NOCC(=O)OC(C)(C)C)C[C@@H]2N(C)CC3)cc1OC
test-value: 6.42

###

Overview of recorded Condition 2 Conversion (%) for various compounds
# Format: physicochemical
# assay-setup: DI water, 25° C., 0.5 mM; time 24 h

compound: COc1ccc([C@@]23CCC(=NOCCO)C[C@@H]2N(C)CC3)cc1OC [Compound 203]
Condition 2 Conversion (%): 0
--
compound: COc1ccc(C23CCC(=NNC(=O)Nc4ccccc4)C[C@@H]2N(C)CC3)cc1OC (stereo in doubt) [Compound 198]
Condition 2 Conversion (%): 0.8
--
compound: COc1ccc([C@@]23CCC(=NOC(C)(C)C)C[C@@H]2N(C)CC3)cc1OC [Compound 199]
Condition 2 Conversion (%): 0
--
compound: COc1ccc([C@@]23CC/C(=N\NC(=O)NCCc4cccs4)C[C@@H]2N(C)CC3)cc1OC [Compound 256]
Condition 2 Conversion (%): 0
--
compound: COc1ccc([C@@]23CCC(=NNCc4cccnc4)C[C@@H]2N(C)CC3)cc1OC [Compound 370]
Condition 2 Conversion (%): 70
--
compound: COc1ccc([C@@]23CCC(=NOCCC45CC6CC(CC(C6)C4)C5)C[C@@H]2N(C)CC3)cc1OC [Compound 276]
Condition 2 Conversion (%): 0
--
compound: COc1ccc([C@@]23CCC(OC(=O)CC(C)C)=C[C@@H]2N(C)CC3)cc1OC [Compound 334]
Condition 2 Conversion (%): 0
--
compound: COc1ccc([C@@]23CCC(=NNC(=O)Nc4cccc(O)c4)C[C@@H]2N(C)CC3)cc1OC [Compound 251]
Condition 2 Conversion (%): 15.18
--
compound: C=C(C)C(=O)OC1=C[C@@H]2N(C)CC[C@]2(c2ccc(OC)c(OC)c2)CC1 [Compound 315]
Condition 2 Conversion (%): 0
--
compound: COc1ccc([C@@]23CCC(=NNC(=O)Nc4cccnc4)C[C@@H]2N(C)CC3)cc1OC [Compound 299]
Condition 2 Conversion (%): 13
--
compound: COc1ccc([C@@]23CC/C(=N/OC45CC6CC(CC(C6)C4)C5)C[C@@H]2N(C)CC3)cc1OC [Compound 301]
Condition 2 Conversion (%): 0
--
compound: COc1ccc([C@@]23CCC(=NNC(=O)c4ccc(Cl)cc4)C[C@@H]2N(C)CC3)cc1OC [Compound 240]
Condition 2 Conversion (%): 100
--
compound: COc1ccc([C@@]23CCC(=NOc4ccccc4)C[C@@H]2N(C)CC3)cc1OC [Compound 207]
Condition 2 Conversion (%): 0
--
compound: COc1ccc([C@@]23CCC(OC(=O)C(c4ccccc4)c4ccccc4)=C[C@@H]2N(C)CC3)cc1OC [Compound 306]
Condition 2 Conversion (%): 0
--
compound: COc1ccc([C@@]23CCC(=NOCc4ccccc4)C[C@@H]2N(C)CC3)cc1OC [Compound 208]
Condition 2 Conversion (%): 0

###

# protocol-notes: Plasma Stability Assay of Example A3, human plasma
# assay-setup: 240 min; 5 μM, 37° C.; % of prodrug compound remaining
metric: Human Plasma Prodrug (%)

smiles-text: COc1ccc([C@@]23CCC(OC(=O)c4cccc(C(C)(C)C)c4)=C[C@@H]2N(C)CC3)cc1OC
metric: Human Plasma Prodrug (%)
test-value: 26
//
smiles-text: COc1ccc([C@@]23CCC(OC(=O)c4c(C)cccc4C)=C[C@@H]2N(C)CC3)cc1OC
metric: Human Plasma Prodrug (%)
test-value: 38
//
smiles-text: COc1ccc([C@@]23CCC(OC(=O)c4ccc(F)cc4)=C[C@@H]2N(C)CC3)cc1OC
metric: Human Plasma Prodrug (%)
test-value: 39.6
//
smiles-text: COc1ccc([C@@]23CCC(OC(=O)c4ccc(N(C)C)cc4)=C[C@@H]2N(C)CC3)cc1OC
metric: Human Plasma Prodrug (%)
test-value: 93.2

###

Overview of recorded Prodrug (%) remaining, Rat Plasma for various molecules
# assay-setup: 0 h, 10 μM
metric: Prodrug (%) remaining, Rat Plasma

molecule: COc1ccc([C@@]23CCC(OC(=O)c4c(C)cc(C)cc4C)=C[C@@H]2N(C)CC3)cc1OC [Compound 356]
metric: Prodrug (%) remaining, Rat Plasma
readout-units: %
test-value: 100.0

molecule: CCCCCCCC(=O)OC1=C[C@@H]2N(C)CC[C@]2(c2ccc(OC)c(OC)c2)CC1 [Compound 395]
metric: Prodrug (%) remaining, Rat Plasma
readout-units: %
test-value: 100.0

molecule: COc1ccc([C@@]23CCC(OC(=O)CCC(C)C)=C[C@@H]2N(C)CC3)cc1OC [Compound 399]
metric: Prodrug (%) remaining, Rat Plasma
readout-units: %
test-value: 100.0

molecule: CCCC(CCC)C(=O)OC1=C[C@@H]2N(C)CC[C@]2(c2ccc(OC)c(OC)c2)CC1 [Compound 427]
metric: Prodrug (%) remaining, Rat Plasma
readout-units: %
test-value: 100.0

molecule: CCCC(C)(C)C(=O)OC1=C[C@@H]2N(C)CC[C@]2(c2ccc(OC)c(OC)c2)CC1 [Compound 429]
metric: Prodrug (%) remaining, Rat Plasma
readout-units: %
test-value: 100.0

molecule: COCCCCC(=O)OC1=C[C@@H]2N(C)CC[C@]2(c2ccc(OC)c(OC)c2)CC1 [Compound 404]
metric: Prodrug (%) remaining, Rat Plasma
readout-units: %
test-value: 100.0

molecule: COc1ccc([C@@]23CCC(OC(=O)c4ccc(C(C)C)cc4)=C[C@@H]2N(C)CC3)cc1OC [Compound 371]
metric: Prodrug (%) remaining, Rat Plasma
readout-units: %
test-value: 100.0

###

# assay-setup: 10 min, 10 μM

molecule: COc1ccc([C@@]23CCC(OC(=O)c4c(C)cc(C)cc4C)=C[C@@H]2N(C)CC3)cc1OC
readout-units: %
modifier-sign: >
Prodrug (%) remaining, Rat Plasma: 99

molecule: COc1ccc([C@@]23CCC(OC(=O)c4cccc(C)c4)=C[C@@H]2N(C)CC3)cc1OC
readout-units: %
modifier-sign: =
Prodrug (%) remaining, Rat Plasma: 9.7

molecule: COc1ccc([C@@]23CCC(OC(=O)CC(C)(C)C)=C[C@@H]2N(C)CC3)cc1OC
readout-units: %
modifier-sign: =
Prodrug (%) remaining, Rat Plasma: 74.5

molecule: CCCC(C)(C)C(=O)OC1=C[C@@H]2N(C)CC[C@]2(c2ccc(OC)c(OC)c2)CC1
readout-units: %
modifier-sign: =
Prodrug (%) remaining, Rat Plasma: 90.4

molecule: CCC(C)(C)C(=O)OC1=C[C@@H]2N(C)CC[C@]2(c2ccc(OC)c(OC)c2)CC1
readout-units: %
modifier-sign: =
Prodrug (%) remaining, Rat Plasma: 90.3

molecule: COc1ccc([C@@]23CCC(OC(=O)CCC(C)C)=C[C@@H]2N(C)CC3)cc1OC
readout-units: %
modifier-sign: =
Prodrug (%) remaining, Rat Plasma: 0.0

molecule: COc1ccc([C@@]23CCC(OC(=O)c4ccc(C(C)C)cc4)=C[C@@H]2N(C)CC3)cc1OC
readout-units: %
modifier-sign: =
Prodrug (%) remaining, Rat Plasma: 5.0

molecule: CCCC(C)C(=O)OC1=C[C@@H]2N(C)CC[C@]2(c2ccc(OC)c(OC)c2)CC1 (stereo partly drawn)
readout-units: %
modifier-sign: =
Prodrug (%) remaining, Rat Plasma: 3.5

molecule: CCC(C)(CC)C(=O)OC1=C[C@@H]2N(C)CC[C@]2(c2ccc(OC)c(OC)c2)CC1
readout-units: %
modifier-sign: =
Prodrug (%) remaining, Rat Plasma: 98.2
